- Organism: Rattus norvegicus
- assay_name: DrugMatrix - Regimen: Daily Repeat
- Type: toxicity, organism-based, Sprague-Dawley
- Design: regimen Daily Repeat, gender Male, age 6-8 weeks
- condition_info: in vivo, po, 0 mg/kg, 120 h, tissue Blood, route oral GAVAGE, dose level Control, time 5 day, vehicle .5 % CMC
assay_metric: LEUKOCYTE COUNT (x10E3/uL)
Number in x10E3/uL, nothing else.

Ask: Item C[C@]12C/C(=C/O)C(=O)C[C@@H]1CC[C@@H]1[C@@H]2CC[C@@]2(C)[C@H]1CC[C@]2(C)O has what recorded LEUKOCYTE COUNT?
Reply: 11.38

Ask: Entry under review: CO[C@H]1C[C@@H]2CC[C@@H](C)[C@@](O)(O2)C(=O)C(=O)N2CCCC[C@H]2C(=O)O[C@H]([C@H](C)C[C@@H]2CC[C@@H](O)[C@H](OC)C2)CC(=O)[C@H](C)/C=C(\C)[C@@H](O)[C@@H](OC)C(=O)[C@H](C)C[C@H](C)/C=C/C=C/C=C/1C . Reported LEUKOCYTE COUNT?
Reply: 15.78

Ask: Tell me the measured LEUKOCYTE COUNT of C=C(CC)C(=O)c1ccc(OCC(=O)O)c(Cl)c1Cl , please.
Reply: 9.5

Ask: Which LEUKOCYTE COUNT value is on record for CC[C@]1(O)CC[C@H]2[C@@H]3CCC4=CCCC[C@@H]4[C@H]3CC[C@@]21C ?
Reply: 9.42

Ask: May I ask what LEUKOCYTE COUNT has been recorded for CCOC(=O)[C@H](CCc1ccccc1)N[C@@H](C)C(=O)N1Cc2ccccc2C[C@H]1C(=O)O ?
Reply: 15.03

Ask: Tell me the measured LEUKOCYTE COUNT of COc1ccccc1OCC(O)COC(N)=O (configuration not stated) , please.
Reply: 15.07

Ask: Query: LEUKOCYTE COUNT; subject: CN1C(=O)CN=C(c2ccccc2)c2cc(Cl)ccc21
Reply: 16.08

###

- Organism: Rattus norvegicus
- assay_name: DrugMatrix - Regimen: Daily Repeat
- Assay type: toxicity, organism-based, Sprague-Dawley
- Set-up: regimen Daily Repeat, gender Male, age 6-8 weeks
- condition_info: in vivo, po, 100 mg/kg, 72 h, tissue Blood, route oral GAVAGE, dose level Low, time 3 day, vehicle .5 % CMC
Provide the recorded ERYTHROCYTE COUNT for the entries that follow.
Form entry: enter the amount, then its unit.

Ask: I would be grateful if you could share the reported ERYTHROCYTE COUNT for CC=Cc1ccc(O)c(OC)c1 [ISOEUGENOL] .
Reply: 5.62 x10E6/uL

Ask: Looking for the measured ERYTHROCYTE COUNT of CC[C@]1(O)CC[C@H]2[C@@H]3CCC4=CCCC[C@@H]4[C@H]3CC[C@@]21C , can you help?
Reply: 7.14 x10E6/uL

Ask: # query: ERYTHROCYTE COUNT of entry Nc1nc2c(c(=O)[nH]1)N(C=O)C(CNc1ccc(C(=O)N[C@@H](CCC(=O)O)C(=O)O)cc1)CN2 (some centres undefined) [LEUCOVORIN]
Reply: 5.73 x10E6/uL

Ask: Name the reported ERYTHROCYTE COUNT value associated with the compound C#C[C@]1(O)CC[C@H]2[C@@H]3CCC4=Cc5oncc5C[C@]4(C)[C@H]3CC[C@@]21C [DANAZOL]
Reply: 5.54 x10E6/uL
